- assay.name: yeast display, Sf9 membrane polyspecificity reagent, FACS + sequencing; frameworks hold sequencing errors
quantity.measured: polyreactivity (PSR sort gate)

>>> value_observed("QVQLVESGGGLVQAGGSLRLSCAASGSTFYRFAMGWYRTAPGKERELVAAISRSGGSTYYADTVKGRFTISRDNAKNTVYLQMNSLKPEDTAVYYCAAQYTFYYRSWSDYWGQGTQVTVSS")
"high polyreactivity"
>>> value_observed("QVQLVETGGGLVQAGGSLRLSCADSGRIFRYNAMGWYRHAHGKERELVAAITLSTGSTYYADSVKGRFTISRDNAKNTVYLQMNSLKPEDTAVYYCAARIDGRTYARRVYYWGQGTQVTLSS")
"high polyreactivity"
>>> value_observed("QVQLVESGGGLVQAGGSLRLSCAASGRIFGPYTMGWYRQAPGKERELVAAISWSGGSTYYADSVKGRFTISRDNAKNTVYLQMNSLKPEDTAVFYCNADHPFPQYEGGSWGQGTQVTVSS")
"low polyreactivity"
>>> value_observed("QVQLVESGGGLVQAGGSLRLSCAASGSTFVIYAMGWYRQAPGKERELVAAISGRTGSTYYADSVKGRFTISRDNAKNTVYLQMNSLKPEDTAVYYCAAYKRSGLKYGHWGQGTQVTVSS")
"high polyreactivity"
>>> value_observed("QVQLVESGGGLVQAGGSLRLSCAASGYIFVRNAMGWYRQAPGKERELVAAISGSGGSTYYADSVKGRFTISRDNAKNTVYLQMNSLKPVDTAVYYCAADYATVTWRGIAYDYWGQGTQVTVSS")
"low polyreactivity"

---

- assay.name: yeast display, Sf9 membrane polyspecificity reagent, FACS + sequencing; frameworks hold sequencing errors
quantity.measured: polyreactivity (PSR sort gate)

>>> value_observed("QVQLVESGGGLVQAGGSLRLSCAASGRIFDFNAMGWYRQAPGKEREFVAAIRTSGGDSTYYADSVKGRFTISRDNEKNTVYLQMNSLKPEDTAVYYCAKTVWWYYRYPFDYWGQGTQVTVSS")
"low polyreactivity"
>>> value_observed("QVQLVESGGGLVQAGGSLRLSCAASGSIFAYAMGWYRQAPGKQRELVAGISSSGGRTYYADSVKGRFTISRDNAKNSVYLQMNSLKPEDTAVYYCAARAQSPPYGYWGQGTQVTVSS")
"high polyreactivity"
>>> value_observed("QVQLVESGGGLVQAGGSLRLSCAASGRTSYYAMGWYRQAPGKETELVAAINSGDSPTDADSVKGRFTISRDNAKNTVYLQMNTQTPEDTAVYYCATALYDWYSLEFDYWGQGTQVTVSS")
"low polyreactivity"
>>> value_observed("QVQLVESGGGLVQAGGSLRLTCAASGFIFQIYAMGWYRQAPGKERELVAAISSGGSTNYADSVKGRFTISRDNAKNTVYLQMNSLKPEDTAVYYCAAATQYWYFYSFKDKSGFRGYYWGQGTQVTVSS")
"high polyreactivity"
>>> value_observed("QVQHVESAGGLVQAGGSLRLSCAASGITFKVYAMGWYRQAPGKERELVATISRSDAGTSYADSVKGRFTISRDNAKNTVYLQMNSLKPEDTAVYYCAATYVSKKTHTKYDYWGQGTQVTVSS")
"high polyreactivity"

---

- assay.name: yeast display, Sf9 membrane polyspecificity reagent, FACS + sequencing; frameworks hold sequencing errors
quantity.measured: polyreactivity (PSR sort gate)

>>> value_observed("QVQLVESGGGLDQAGGSLRLSCAAYGNTFRGYTMGWYRQAPGKEREFVAAISWSGGRTNYADSVKGRFTISRDNAKNTVYLQMNSLKPEDTAVYYCARDYRARRWGMDYWGQGTQVTVSS")
"high polyreactivity"
>>> value_observed("QVQLVESWGGLVQAGGSLRLSCAASGFTFLNYAMGWYRQAPGKERELVAAISFSTGRTYYADSVKGRFTISRDNAKNTDYLQMNSLKPEDTAVYYGAAGYWPGYSLTYRGGYWGQGTQVTVSS")
"high polyreactivity"
>>> value_observed("QVQLVESGGGLVQAGGSLRLSCAASGITLRLYAMGWYRQAPGKERELVAAISKRGGSTYYADSVKWRFTISRDNAKNTVYLQMNSQKPEDTAVYYCAADSGWEHRYDYWGQGTQVTVSS")
"high polyreactivity"

---

- assay.name: yeast display, Sf9 membrane polyspecificity reagent, FACS + sequencing; frameworks hold sequencing errors
quantity.measured: polyreactivity (PSR sort gate)

>>> value_observed("QVQLVESGGGLVQAGGSLRLSCAASGFIFGHNTMGWYRQAPGKERELVARITSSGGGTNYADSVKGRFTISRDNAKNTVYLQMNSLKPEDTAVYYCAAELLYWGYYDYDYWGQGTQVTVSS")
"high polyreactivity"
>>> value_observed("QVQLVESGGGLVQAGGSLRLSCAASGRTSRFYAMGWYRQAPGKERELVARITTRGGSTYYADSVKGRFTISRDNAKNTVYLQMNSLKPEDTAVYYCNAERAGTYRYDYWGQGTQVTVSS")
"high polyreactivity"
>>> value_observed("QVQLVESGGGLVQAGGSLRLSCAASGSNFYSYVMGWYRQAPGKERELVAAISRNGQSTYYADSVKGRFTISRDNAKNTVYLQMNSLKPEDTAVYYCAARSRDKYDYWGQGTQVTVSS")
"high polyreactivity"
>>> value_observed("QVQLVESGGGLVQAGGSLRLSCAASGSTFRTYAMGWYRQAPGKERDLVASIDSTGSTNYADSVKGRFTISRDNAKNTVYLQMNSLKPEDTAVYYCAAETYSDPPFYAYDYWGQGTQVTVSS")
"low polyreactivity"
>>> value_observed("QVQLVESGGGLVQAGGSLRLSCAASGRTFRGNAMGWYRQATGKERELVDVITASGSTTYADSVKGRFTISRDNAKNTVYLQLYSLKPEDTAVYYCAKYVPWYTLWLGGTDRDYWGQGTQVTVSS")
"low polyreactivity"
>>> value_observed("QVQLVESGGGLVQAGGSLRLSCAASGNILYANAMGWYRQAPGKERELVATINVSADSTYADSVKGRFTISRDNAKNTVYLQMNRLNPEDTAVYYCNAYGLYEKWGPWTVPYYYWGQVTQVTVSS")
"low polyreactivity"
>>> value_observed("QVQLVESGGGLVQAGGSLRLSCAASGFIFPPYTMGWYRQAPGKERELVAAINSGGSTYYADSVKGRFTISRDNAKNTVYLPMNSLKPEDTAVYYCAADTDRALAHFDYWGQGTQVTVSS")
"low polyreactivity"
>>> value_observed("QVQLVESGGVLVQAGCSIRLSCSASGLTFIQYAMGWYRQAPGKERELVAAINSGASTRYADSVKGRFTISRDNAKNTVYLQMNSLKPEDTAVYYCNARLRRYTNRYYKYYYWGQGTQVNVSS")
"high polyreactivity"
>>> value_observed("QVQLVESAGGLVQAGGSLRLSCAASGSTFWLYAMGWYRQAPGKERELVAAISYTGTSTYYADSVKGRFTISRDNAKNTVYLQMNSLKPEDTAVYDCAADFVGLVTGYDYSWGQGTQVTVSS")
"low polyreactivity"
>>> value_observed("QVQLVESGGGLVQAGGSLRLICAASGFTFVANAMGWYRPAPGKERELVAVIDWDEGSTYYADSVKGRFTISRDNAKNTVYLQMNSLKPEETAVYYCNADGYSPDRYDYYYRYYYWGQGTQVTVSS")
"low polyreactivity"
>>> value_observed("QVQLVESGGGLVQAGGSLRLSCAASGSTFTYNTMGWYRQAPGKERELVAAISSGGSTYYADSVKGRFTISRDNAKNTVYLQMNSLKPEDTAVYYCAATAQKDSRYGSRYYYWGQGTQVTVSS")
"high polyreactivity"
>>> value_observed("QVQLVESGGGLVQAGGSLRLSFAASGRTFDRYDMGWYRQAPGKERELVATISSSGGSTYYADSVKGRFTISRDNAKNTVYLQMNSLKPEDTAVYYCAADPSGDYWGQGTQVTVSS")
"low polyreactivity"
>>> value_observed("QVQLVESGGGLVQAGGSLRLSCAASGFIFWVNAMGWYRQAPGKERELVAAISQSGGTTYYADSVKGRFTISRDNAKNTVYFQMNSLKPEDTAVYYCNALWRGHGRYNYWGQGTQVTVSS")
"low polyreactivity"
>>> value_observed("QVQLVESGGRLVQAGGSLRLSCAASGRIFNYYDMGWYSQAPGKERELVAAINYSGGSTYYADSVKGRFTISRDNAKNTVSLQMNSLKAEDTAVYYCAADGYYYYCYGTTDQDDYWGLGTQVTVSS")
"low polyreactivity"
>>> value_observed("QVQLVESRAGLVQEGGSLRVSCAASGNILGTYAMGWYRQAPGKERELVAAISSSVGSTYYADSVKARFTISRDNAKNTVYLQINSLKPEDTAVYYCAPQPRVDYEFPYRYGYWGQGSQVTVSS")
"low polyreactivity"
>>> value_observed("QVQLVESGGGLVQAGGSLRLSCAASGRTFRPYAMGWSRQAPGKERELVAAIDSSGTSTYYADSVKGRFTISRDNAKNTVYLQMNSLKPEDTAVYYCAKAWPDHWYSRYDYWGQGTQVTVSS")
"low polyreactivity"
>>> value_observed("QVQLVESGGGLVQAGGSLRLSCAASGSTFYTNAMGWYRQAPGKERELVAAISYSGGGTYYADSVKGRFTISRDNAKNTVYLQMNSLKPEDTAVYYCAADTLQRAFVLYDYWGQGTQVTVSS")
"high polyreactivity"
>>> value_observed("QVQLVESGGGLVQAGVSLRLSCAAAGITFGDYSMGWYRQEPGKEMELVAGIYWSGDGTSYADSVKGRFTISRDNAKNTVYLQMYRLKPEDTAVYYFAAYWYYYLMDYWGQGTQVSVSS")
"low polyreactivity"
>>> value_observed("QVQLVESGGGFVQAVGSLRLSCAASGSTFPRYVLGWYRQAPGTARELVAAITWRGSTNDADSVKGRFTISRDNAKNTVYLQMNSLKPEDSAVYYCAAAFFARDRKRYNYWGQGTQVTVSS")
"high polyreactivity"
>>> value_observed("QVQLVESGGGLVQAGGRLRLSCAASGRTFYGYAMGWYRQAPGKEREMVAAITQRGVSTYADSVKGRFTISRDNAKNTVYLQMNSLKQEDTAVYYCAADQIERFRDQTWDFDYWGQGTQVTVSS")
"low polyreactivity"
>>> value_observed("QVNLVDSGGGLVQAGGSLRLSCAASGSTFRNNAMGWSRQAPGKERELVAVITGDGGSTYYADSVKGRFTISRDNAKNTVYLQMNSLKPEDTAVYYCNARSIRYYRFRLRFGYWGQGTQVTVSS")
"low polyreactivity"
